Please go through the items and note down their NFκB luc, 3750 ng/ml, w/o x linker.
system.name: human LTBR on cells (human, UniProt P36941 31-435)
procedure.details: cell-based or functional assay
Note: a bare number is incomplete; add the unit.

Give the measured NFκB luc, 3750 ng/ml, w/o x linker of P1AE9457 (antibody, human IgG1, kappa, L234A L235A, V domains shown, human IgG1 PG LALA; from transgenic rabbit immunization; also called LTBR (9457)) VH: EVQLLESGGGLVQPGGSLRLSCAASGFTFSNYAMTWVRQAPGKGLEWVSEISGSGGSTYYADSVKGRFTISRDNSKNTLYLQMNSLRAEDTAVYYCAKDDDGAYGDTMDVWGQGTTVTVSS VL: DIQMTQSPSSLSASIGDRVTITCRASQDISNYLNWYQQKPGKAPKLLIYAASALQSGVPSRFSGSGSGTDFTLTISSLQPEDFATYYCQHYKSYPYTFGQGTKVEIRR . 15300 RLU

And then P1AF0080 (antibody, human IgG1, kappa, L234A L235A, V domains shown, human IgG1 PG LALA; from transgenic rabbit immunization; also called LTBR (0080)) VH: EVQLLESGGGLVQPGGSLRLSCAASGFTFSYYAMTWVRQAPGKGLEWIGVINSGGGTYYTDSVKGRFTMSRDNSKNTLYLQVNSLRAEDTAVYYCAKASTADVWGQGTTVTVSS VL: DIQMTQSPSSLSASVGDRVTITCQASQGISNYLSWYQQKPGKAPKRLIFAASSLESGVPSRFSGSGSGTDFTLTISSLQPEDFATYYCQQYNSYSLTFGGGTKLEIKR , what is it? 18500 RLU

Another binder to look at: P1AE1873 (CBE11) (antibody, human IgG1, kappa, L234A L235A, V domains shown) VH: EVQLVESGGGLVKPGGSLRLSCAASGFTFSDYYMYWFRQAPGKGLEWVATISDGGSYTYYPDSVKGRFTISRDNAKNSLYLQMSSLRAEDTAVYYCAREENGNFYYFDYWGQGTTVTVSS VL: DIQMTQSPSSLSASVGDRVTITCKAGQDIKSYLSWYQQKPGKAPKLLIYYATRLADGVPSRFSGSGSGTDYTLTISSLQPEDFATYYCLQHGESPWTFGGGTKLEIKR 31000 RLU
